Sourced from patent US8962637B2

measurement-notes: Volume distribution
run-parameters: in vivo
readout: Vd (L/kg)

compound: Cc1ccc(NC(=O)CCC(F)(F)F)cc1N1CCc2nc(Nc3ccc(N4CCN(C)CC4)cc3)ncc2C1 [Compound 131]
Vd / L/kg: 7.14

compound: Cc1cc(Nc2ncc3c(n2)CCN(c2cc(NC(=O)c4cccc(C(F)(F)F)c4)ccc2Cl)C3=O)ccc1N1CCN(C)CC1 [Compound 171]
Vd / L/kg: 0.794

compound: Cc1ccc(NC(=O)c2cccc(C(F)(F)F)c2)cc1N1CCc2nc(Nc3ccc(N4CCN(C)CC4)cc3)ncc2C1=O [Compound 45]
Vd / L/kg: 5.89

A: Cc1ccc(NC(=O)CCC(F)(F)F)cc1N1CCc2nc(Nc3ccc(OCCN4CCCC4)cc3)ncc2C1 [Compound 147]
B: CN1CCN(c2ccc(Nc3ncc4c(n3)CCN(c3cc(NC(=O)c5cccc(C(F)(F)F)c5)ccc3Cl)C4=O)cc2)CC1 [Compound 162]
C: Cc1ccc(NC(=O)c2cccc(C(F)(F)F)c2)cc1N1CCc2nc(Nc3ccc(C(=O)N4CCN(C)CC4)cc3)ncc2C1 [Compound 17]
D: Cc1ccc(NC(=O)CC(C)C(F)(F)F)cc1N1CCc2nc(Nc3ccc(OCCN4CCCC4)cc3)ncc2C1 (centres unmarked) [Compound 155]
E: O=C(COc1ccc(Nc2ncc3c(n2)CCN(c2cc(NC(=O)c4cccc(C(F)(F)F)c4)ccc2Cl)C3=O)cc1)NC1CC1 [Compound 185]
Could you please sort these 5 entries by Vd from high to low? Reply: labels, ordered per the request.
A, D, C, B, E
(A: 20.6 L/kg, D: 11.8 L/kg, C: 7.7 L/kg, B: 3.35 L/kg, E: 0.583 L/kg)

---

tgt: JAK2 (Homo sapiens (Human))
Sequence (O60674 whole entry): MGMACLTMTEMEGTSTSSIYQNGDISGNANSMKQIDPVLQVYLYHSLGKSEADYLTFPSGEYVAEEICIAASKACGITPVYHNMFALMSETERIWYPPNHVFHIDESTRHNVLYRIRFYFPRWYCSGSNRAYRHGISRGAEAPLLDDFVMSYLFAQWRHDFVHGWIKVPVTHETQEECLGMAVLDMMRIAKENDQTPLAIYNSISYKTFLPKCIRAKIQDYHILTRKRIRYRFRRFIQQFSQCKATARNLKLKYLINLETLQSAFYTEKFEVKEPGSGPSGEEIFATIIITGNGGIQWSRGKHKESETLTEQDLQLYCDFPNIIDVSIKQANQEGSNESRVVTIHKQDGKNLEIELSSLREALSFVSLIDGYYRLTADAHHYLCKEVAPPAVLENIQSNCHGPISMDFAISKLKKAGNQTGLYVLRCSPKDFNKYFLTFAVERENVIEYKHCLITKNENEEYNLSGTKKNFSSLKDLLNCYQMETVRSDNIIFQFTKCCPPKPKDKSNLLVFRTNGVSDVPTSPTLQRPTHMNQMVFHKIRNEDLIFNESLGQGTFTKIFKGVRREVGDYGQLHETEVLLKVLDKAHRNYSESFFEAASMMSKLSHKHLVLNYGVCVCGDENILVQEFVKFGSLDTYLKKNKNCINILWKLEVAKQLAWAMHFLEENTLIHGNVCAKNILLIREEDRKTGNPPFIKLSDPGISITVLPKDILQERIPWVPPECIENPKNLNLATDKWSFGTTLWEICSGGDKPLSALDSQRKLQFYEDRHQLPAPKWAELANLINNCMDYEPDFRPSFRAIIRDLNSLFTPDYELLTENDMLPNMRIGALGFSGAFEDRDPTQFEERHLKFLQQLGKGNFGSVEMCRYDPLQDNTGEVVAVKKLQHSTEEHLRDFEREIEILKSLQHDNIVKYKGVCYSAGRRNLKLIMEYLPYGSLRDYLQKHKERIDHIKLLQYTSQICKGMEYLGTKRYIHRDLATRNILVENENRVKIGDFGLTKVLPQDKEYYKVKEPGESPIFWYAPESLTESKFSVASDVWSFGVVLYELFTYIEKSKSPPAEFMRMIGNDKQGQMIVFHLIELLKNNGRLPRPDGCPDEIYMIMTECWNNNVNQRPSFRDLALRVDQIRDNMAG
measurement-notes: TR-FRET JAK2 kinase assay
Type: biochemical
run-parameters: read-out: JAK2 % inhibition at 100 nM; 100 nM; ATP 10 μM
readout: inhibition at 0.1 µM (%)

molecule: Cc1ccc(NC(=O)c2cccc(C(F)(F)F)c2)cc1N1CCc2nc(Nc3ccc(C(=O)N4CCN(C)CC4)cc3)ncc2C1=O [Compound 75]
unit-symbol: %
inhibition at 0.1 µM: 83
//
molecule: O=C(Nc1ccc(Cl)c(N2CCc3nc(Nc4ccc(OCCN5CCCC5)cc4)ncc3C2=O)c1)c1cccc(C(F)(F)F)c1 [Compound 181]
unit-symbol: %
inhibition at 0.1 µM: 85
//
molecule: CN1CCN(c2ccc(Nc3ncc4c(n3)CCN(c3cc(NC(=O)c5cccc(C(F)(F)F)c5)ccc3Cl)C4)cc2)CC1 [Compound 174]
unit-symbol: %
inhibition at 0.1 µM: 94
//
molecule: Cc1ccc(NC(=O)c2cccc(C(F)(F)F)c2)cc1N1CCc2nc(Nc3ccc(OCCCN4CCN(C)CC4)cc3)ncc2C1=O [Compound 180]
unit-symbol: %
inhibition at 0.1 µM: 67
//
molecule: CN1CCN(c2ccc(Nc3ncc4c(n3)CCN(c3cc(NC(=O)c5cccc(C(F)(F)F)c5)ccc3Cl)C4=O)cc2)CC1 [Compound 162]
unit-symbol: %
inhibition at 0.1 µM: 92
//
molecule: CNC(=O)c1ccc(Nc2ncc3c(n2)CCN(c2cc(NC(=O)c4cc(C(F)(F)F)ccn4)ccc2Cl)C3)cc1 [Compound 179]
unit-symbol: %
inhibition at 0.1 µM: 81

---

Reported values: IC50 for JAK1 (Homo sapiens (Human)), one per item.
Output spec: scalar in nM, unitless text.

Here is how some compounds turned out for IC50.
compound: Cc1ccc(NC(=O)c2cccc(C(F)(F)F)c2)cc1N1CCc2nc(Nc3ccc(C(=O)NC4CC4)nc3)ncc2C1 [Compound 117]
measured: 24
--
compound: Cc1ccc(NC(=O)c2cccc(C(F)(F)F)c2)cc1N1CCc2nc(Nc3ccc(N4CCN(C)CC4)cc3)ncc2C1=O [Compound 45]
measured: 116

Now let's try a different one.
Input CNC(=O)c1ccc(Nc2ncc3c(n2)CCN(c2cc(NC(=O)c4cc(C(F)(F)F)ccn4)ccc2Cl)C3)cc1 [Compound 179] . Output IC50: 12
